biological target: Serine/threonine-protein kinase BRSK2 (Homo sapiens); conditions: at 10 µM
Please note: y applies when residual activity is 90% or greater, and n applies otherwise.

# compound, tgt, qualitative-label
data = [
    ("N#Cc1cnc2cnc(NCc3cccnc3)cc2c1Nc1ccc(F)c(Cl)c1", "Serine/threonine-protein kinase BRSK2 (Homo sapiens)", "y"),
    ("COc1ccc(C(=O)Nc2sc3c(c2C(N)=O)CCCC3)cc1OC", "Serine/threonine-protein kinase BRSK2 (Homo sapiens)", "y"),
    ("O=C(O)c1ccc2c3c1cccc3c(=O)n1c3ccccc3nc21", "Serine/threonine-protein kinase BRSK2 (Homo sapiens)", "n"),
    ("Cc1nc2cc3nc(-c4cccs4)cnc3cc2n1C", "Serine/threonine-protein kinase BRSK2 (Homo sapiens)", "y"),
    ("Nc1n[nH]c2nnc(-c3c(-c4ccccc4)nn4ccccc34)cc12", "Serine/threonine-protein kinase BRSK2 (Homo sapiens)", "y"),
]

Assess whether reported residual activity for "N#CCCc1ccc2c(c1)-c1[nH]c3ccc([N+](=O)[O-])cc3c1CC(=O)N2" sits at 90% or higher.
n

Assess whether reported residual activity for "Oc1ccc(Nc2nc(-c3ccc(Cl)cc3)cs2)cc1" sits at 90% or higher.
y

Assess whether reported residual activity for "Cn1cnc2cc3c(Nc4cccc(Br)c4)ncnc3cc21" sits at 90% or higher.
n

###

Let's look at some compounds and their measured residual activity.
molecular target: Activated CDC42 kinase 1 (Homo sapiens) (UniProt Q07912); conditions: at 1 µM
Sequence (Q07912 whole entry, looked up): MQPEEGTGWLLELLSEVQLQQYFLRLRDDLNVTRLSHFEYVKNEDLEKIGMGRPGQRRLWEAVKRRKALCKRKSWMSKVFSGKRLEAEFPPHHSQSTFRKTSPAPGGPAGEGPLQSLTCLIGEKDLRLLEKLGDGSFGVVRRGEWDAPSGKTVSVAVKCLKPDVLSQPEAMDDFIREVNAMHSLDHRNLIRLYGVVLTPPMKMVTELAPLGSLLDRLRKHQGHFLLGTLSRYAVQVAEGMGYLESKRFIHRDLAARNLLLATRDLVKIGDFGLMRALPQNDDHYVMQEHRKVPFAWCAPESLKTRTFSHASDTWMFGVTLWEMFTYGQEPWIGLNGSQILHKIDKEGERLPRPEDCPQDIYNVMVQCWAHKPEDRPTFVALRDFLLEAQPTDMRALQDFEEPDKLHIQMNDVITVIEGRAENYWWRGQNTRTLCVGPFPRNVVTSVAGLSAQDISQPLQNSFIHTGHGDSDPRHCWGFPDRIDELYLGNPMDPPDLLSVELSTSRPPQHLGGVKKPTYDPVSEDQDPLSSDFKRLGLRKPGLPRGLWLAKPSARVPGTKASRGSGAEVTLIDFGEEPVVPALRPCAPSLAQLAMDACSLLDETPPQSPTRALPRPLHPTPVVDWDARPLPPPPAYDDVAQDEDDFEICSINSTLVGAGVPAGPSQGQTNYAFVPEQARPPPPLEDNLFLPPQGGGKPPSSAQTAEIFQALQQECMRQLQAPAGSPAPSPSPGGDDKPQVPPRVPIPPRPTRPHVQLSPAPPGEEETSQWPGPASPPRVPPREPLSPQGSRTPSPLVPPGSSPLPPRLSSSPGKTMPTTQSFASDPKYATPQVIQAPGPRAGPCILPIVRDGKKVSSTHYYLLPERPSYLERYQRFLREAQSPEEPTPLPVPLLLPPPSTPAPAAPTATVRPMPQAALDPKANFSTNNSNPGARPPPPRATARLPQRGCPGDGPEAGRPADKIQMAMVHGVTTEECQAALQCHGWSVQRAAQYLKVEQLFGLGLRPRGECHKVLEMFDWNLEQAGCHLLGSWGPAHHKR
Could you give me the number in %? Just the number is fine.

Worked examples, 5 compounds total:
# smiles-record, residual activity [%]
measured = [
    ("Oc1ccc(-c2nc(-c3ccc(F)cc3)c(-c3ccncc3)[nH]2)cc1", 81),
    ("CC[n+]1c(/C=C/N(C)c2ccccc2)n(-c2ccccc2)c2ccc(-c3nc4ccccc4s3)cc21", 110),
    ("COc1ccc(C(=O)Nc2sc3c(c2C(N)=O)CCCC3)cc1OC", 77),
    ("N#CC(C#N)=C(N)/C(C#N)=C/c1ccc(O)cc1", 84),
    ("CN(C)c1ccc(/C=C2\\C(=O)Nc3ccccc32)cc1", 89),
]

residual activity value, target or system Activated CDC42 kinase 1 (Homo sapiens) (UniProt Q07912), for "Nc1nc(Nc2ccc(S(N)(=O)=O)cc2)nn1C(=S)Nc1c(F)cccc1F" : 9

residual activity value, target or system Activated CDC42 kinase 1 (Homo sapiens) (UniProt Q07912), for "O=C1Nc2cc(Br)ccc2/C1=C1/Nc2ccccc2/C1=N\O" : 14

###

biological target: Cyclin-dependent kinase 7/ cyclin H (Homo sapiens) (UniProt P51946+P50613); details: at 10 µM
recorded-metric: residual activity (%)
Could you give me the number in %? Just the number is fine.

Worked examples, 5 compounds total:
# smiles-record, residual activity / %
data = [
    ("O=C1NC(=O)c2cc(Nc3ccc(F)cc3)c(Nc3ccc(F)cc3)cc21", 112),
    ("COc1cccc(-c2cc(=O)c3ccccc3o2)c1N", 89),
    ("CC[n+]1c(/C=C/N(C)c2ccccc2)n(-c2ccccc2)c2ccc(-c3nc4ccccc4s3)cc21", 100),
    ("N#C/C(=C(\\N)Sc1ccc(N)cc1)c1ccccc1C(F)(F)F", 94),
    ("O=C(O)c1ccc2c3c1cccc3c(=O)n1c3ccccc3nc21", 91),
]

Turning now to a further compound:
For record "N#CC(C#N)=C(N)/C(C#N)=C/c1ccc(O)cc1" the listed residual activity is 90

###

biological target: SRSF protein kinase 2 (Homo sapiens) (UniProt P78362); details: at 1 µM
Sequence (P78362 whole entry, looked up): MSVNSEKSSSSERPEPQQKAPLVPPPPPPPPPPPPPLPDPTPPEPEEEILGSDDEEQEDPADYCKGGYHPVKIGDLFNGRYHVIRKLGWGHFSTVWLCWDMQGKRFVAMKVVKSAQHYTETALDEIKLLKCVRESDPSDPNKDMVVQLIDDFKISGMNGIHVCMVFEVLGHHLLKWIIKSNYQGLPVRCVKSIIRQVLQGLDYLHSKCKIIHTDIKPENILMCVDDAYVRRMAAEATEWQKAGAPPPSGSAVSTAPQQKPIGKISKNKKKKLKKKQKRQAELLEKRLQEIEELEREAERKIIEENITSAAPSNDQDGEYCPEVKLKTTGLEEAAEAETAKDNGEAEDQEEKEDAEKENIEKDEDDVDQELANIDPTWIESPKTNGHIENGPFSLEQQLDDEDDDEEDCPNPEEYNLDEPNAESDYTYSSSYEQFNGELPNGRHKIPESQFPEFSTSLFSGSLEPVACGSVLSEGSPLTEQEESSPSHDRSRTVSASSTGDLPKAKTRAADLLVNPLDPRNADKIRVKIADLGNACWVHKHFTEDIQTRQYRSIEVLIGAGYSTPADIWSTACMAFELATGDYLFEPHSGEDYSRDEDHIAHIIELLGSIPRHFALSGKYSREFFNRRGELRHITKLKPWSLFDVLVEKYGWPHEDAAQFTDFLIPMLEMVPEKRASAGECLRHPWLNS
recorded-metric: residual activity
Remember to quote the unit after the number.

Worked examples, 6 molecules total:
# smiles-record, residual activity
measured = [
    ("COc1ccc(C(=O)Nc2sc3c(c2C(N)=O)CCCC3)cc1OC", "89%"),
    ("Oc1c2ccccc2c2c3c(cccc13)N=N2", "97%"),
    ("Cc1nc2cc3nc(-c4cccs4)cnc3cc2n1C", "98%"),
    ("O=C(Nc1cccc(Nc2cc(Nc3cccc(C(F)(F)F)c3)ncn2)c1)C1CC1", "90%"),
    ("CNc1cc2c(Nc3cccc(Br)c3)ncnc2cn1", "98%"),
    ("CO[C@@H]1[C@H](N(C)C(=O)c2ccccc2)C[C@H]2O[C@]1(C)n1c3ccccc3c3c4c(c5c6ccccc6n2c5c31)C(=O)NC4", "64%"),
]

Turning now to a further molecule:
For record "COc1cc2ncnc(Nc3ccc(Oc4ccccc4)cc3)c2cc1OC" the listed residual activity is 105%

###

Let's look at some molecules and their measured residual activity.
biological target: Macrophage-stimulating protein receptor (Homo sapiens) (UniProt Q04912); settings: at 10 µM
Sequence (Q04912 25-304 limits assumed): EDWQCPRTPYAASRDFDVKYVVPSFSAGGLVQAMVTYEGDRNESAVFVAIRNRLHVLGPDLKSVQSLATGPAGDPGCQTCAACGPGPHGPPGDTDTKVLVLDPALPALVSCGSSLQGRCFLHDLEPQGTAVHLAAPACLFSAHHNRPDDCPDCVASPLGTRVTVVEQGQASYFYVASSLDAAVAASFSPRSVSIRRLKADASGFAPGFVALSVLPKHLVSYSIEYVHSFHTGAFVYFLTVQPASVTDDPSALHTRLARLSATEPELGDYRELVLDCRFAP
Sequence (Q04912 310-1400 limits assumed): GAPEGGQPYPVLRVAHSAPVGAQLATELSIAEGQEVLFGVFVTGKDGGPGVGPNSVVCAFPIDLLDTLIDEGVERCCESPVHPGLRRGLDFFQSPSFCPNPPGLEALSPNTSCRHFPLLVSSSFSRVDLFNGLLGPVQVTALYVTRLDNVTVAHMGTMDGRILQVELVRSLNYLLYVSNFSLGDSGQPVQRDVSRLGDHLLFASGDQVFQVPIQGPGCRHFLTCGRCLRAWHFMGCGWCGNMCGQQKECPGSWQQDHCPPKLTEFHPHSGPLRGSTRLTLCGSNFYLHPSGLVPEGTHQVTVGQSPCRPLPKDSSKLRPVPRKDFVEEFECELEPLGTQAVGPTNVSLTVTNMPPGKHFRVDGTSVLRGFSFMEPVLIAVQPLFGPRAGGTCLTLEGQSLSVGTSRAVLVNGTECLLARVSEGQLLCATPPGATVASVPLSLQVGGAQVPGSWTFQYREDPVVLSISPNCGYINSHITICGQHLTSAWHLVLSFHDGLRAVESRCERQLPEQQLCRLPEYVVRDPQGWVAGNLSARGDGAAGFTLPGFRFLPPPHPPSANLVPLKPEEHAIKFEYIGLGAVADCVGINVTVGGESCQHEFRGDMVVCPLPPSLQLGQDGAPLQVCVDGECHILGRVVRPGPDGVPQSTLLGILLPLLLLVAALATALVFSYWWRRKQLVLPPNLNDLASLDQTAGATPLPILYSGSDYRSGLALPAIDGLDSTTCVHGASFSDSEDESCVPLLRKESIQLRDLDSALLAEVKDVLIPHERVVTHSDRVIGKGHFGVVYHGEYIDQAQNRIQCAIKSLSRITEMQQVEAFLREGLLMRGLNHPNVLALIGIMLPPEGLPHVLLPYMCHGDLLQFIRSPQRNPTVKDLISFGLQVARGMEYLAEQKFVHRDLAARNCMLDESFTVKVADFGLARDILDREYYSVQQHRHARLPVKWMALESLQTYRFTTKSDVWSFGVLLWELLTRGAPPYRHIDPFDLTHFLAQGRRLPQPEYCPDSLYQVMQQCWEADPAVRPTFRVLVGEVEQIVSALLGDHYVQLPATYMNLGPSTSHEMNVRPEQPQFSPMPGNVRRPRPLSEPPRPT
Could you give me the number in %? Just the number is fine.

Worked examples, 5 molecules total:
# smiles-record, residual activity / %
data = [
    ("CCC(=O)Nc1ccc2ncnc(Nc3cccc(Br)c3)c2c1", 70),
    ("O=C1c2ccccc2-[n+]2ccc3c([nH]c4ccccc43)c21", 70),
    ("CC(C)n1cnc2/c(=N/c3cccc(Cl)c3)nc(NCCO)[nH]c21", 70),
    ("Ic1cccc(CSc2nnc(-c3ccncc3)o2)c1", 78),
    ("O=C1NC(=O)/C(=C\\c2ccc3nccnc3c2)S1", 76),
]

For record "NC(=O)c1ccc2[nH]c(-c3ccc(Oc4ccc(Cl)cc4)cc3)nc2c1" the listed residual activity is 84

For record "O=c1c2ccccc2[nH]c(=S)n1CCN1CCC(=C(c2ccc(F)cc2)c2ccc(F)cc2)CC1" the listed residual activity is 78

For record "COc1cc2ncnc(Nc3ccc(NC(=O)c4ccccc4)cc3)c2cc1OC" the listed residual activity is 74

For record "CCN(CC)CCCCN1c2ccccc2Oc2ccc(Cl)cc21" the listed residual activity is 91

For record "CC#CC(=O)Nc1cc2c(Nc3ccc(F)c(Cl)c3)ncnc2cn1" the listed residual activity is 76

For record "Cc1nc(-c2ccccc2)c(-c2ccncc2)o1" the listed residual activity is 96

For record "COc1ccc(CNc2nc(N(CCO)CCO)nc3c2ncn3C(C)C)cc1" the listed residual activity is 85

For record "CO[C@@H]1[C@H](N(C)C(=O)c2ccccc2)C[C@H]2O[C@]1(C)n1c3ccccc3c3c4c(c5c6ccccc6n2c5c31)C(=O)NC4" the listed residual activity is 56

###

target: Mitogen-activated protein kinase kinase kinase 7 (Homo sapiens); details: at 10 µM
Please assign Not satisfied whenever residual activity is at or above 80%, and Satisfied whenever it is below.

Answered examples (3):
# smiles-record, tgt, qualitative-label
data = [
    ("CCC(=O)Nc1ccc2ncnc(Nc3cccc(Br)c3)c2c1", "Mitogen-activated protein kinase kinase kinase 7 (Homo sapiens)", "Not satisfied"),
    ("C[C@@H](N)[C@H]1CC[C@H](C(=O)Nc2ccncc2)CC1", "Mitogen-activated protein kinase kinase kinase 7 (Homo sapiens)", "Not satisfied"),
    ("O=C1NC(=O)/C(=C\\c2ccc3nccnc3c2)S1", "Mitogen-activated protein kinase kinase kinase 7 (Homo sapiens)", "Not satisfied"),
]

In plain terms, does "Cc1cc2ncc(-c3ccccc3)nc2cc1C" come in under 80% for residual activity?
Not satisfied

In plain terms, does "Cn1cc(/C=C2\C(=O)Nc3ccc(S(N)(=O)=O)cc32)c2ccccc21" come in under 80% for residual activity?
Satisfied

In plain terms, does "CCOc1cc2ncnc(Nc3cccc(Br)c3)c2cc1OCC" come in under 80% for residual activity?
Not satisfied

In plain terms, does "CN(C)CCCn1cc(C2=C(c3c[nH]c4ccccc34)C(=O)NC2=O)c2ccccc21" come in under 80% for residual activity?
Satisfied

In plain terms, does "c1ccc2c(-c3ccncc3)c[nH]c2c1" come in under 80% for residual activity?
Not satisfied

In plain terms, does "Nc1ccc2ncnc(NCCc3ccc(Oc4ccccc4)cc3)c2c1" come in under 80% for residual activity?
Satisfied

In plain terms, does "O=C(Nc1cccc(Nc2cc(Nc3cccc(C(F)(F)F)c3)ncn2)c1)C1CC1" come in under 80% for residual activity?
Not satisfied

In plain terms, does "Cc1nc2cc3nc(-c4cccs4)cnc3cc2n1C" come in under 80% for residual activity?
Not satisfied

###

Target: Serine/threonine-protein kinase NLK (Homo sapiens)
Sequence (whole entry): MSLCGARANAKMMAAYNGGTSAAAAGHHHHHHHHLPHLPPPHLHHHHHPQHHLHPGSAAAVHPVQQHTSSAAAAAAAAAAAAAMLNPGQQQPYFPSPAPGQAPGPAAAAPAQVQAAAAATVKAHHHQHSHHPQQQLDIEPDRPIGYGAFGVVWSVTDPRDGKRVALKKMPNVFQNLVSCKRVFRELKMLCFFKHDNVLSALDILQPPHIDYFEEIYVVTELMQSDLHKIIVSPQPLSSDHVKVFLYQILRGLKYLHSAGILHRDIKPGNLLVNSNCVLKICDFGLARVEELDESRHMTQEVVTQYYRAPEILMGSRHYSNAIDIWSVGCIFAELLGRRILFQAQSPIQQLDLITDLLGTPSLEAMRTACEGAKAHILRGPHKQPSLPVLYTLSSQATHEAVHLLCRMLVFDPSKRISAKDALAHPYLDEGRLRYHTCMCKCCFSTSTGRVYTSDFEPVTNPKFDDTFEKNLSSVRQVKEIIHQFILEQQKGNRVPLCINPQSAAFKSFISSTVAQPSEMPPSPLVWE
Conditions: at 1 µM
Let's look at some compounds and their measured residual activity.
Could you give me the number in %? Just the number is fine.

Worked examples, 5 compounds total:
# smiles-record, recorded-metric, measured-number
data = [
    ("O=C1Nc2ccc(Br)cc2/C1=C\\c1cc2c([nH]1)CCCC2", "residual activity", 97),
    ("Ic1cccc(CSc2nnc(-c3ccncc3)o2)c1", "residual activity", 89),
    ("Cc1nc(-c2ccccc2)c(-c2ccncc2)o1", "residual activity", 103),
    ("Nc1ccc2ncnc(NCCc3ccc(Oc4ccccc4)cc3)c2c1", "residual activity", 111),
    ("N#Cc1cnc2cnc(NCc3cccnc3)cc2c1Nc1ccc(F)c(Cl)c1", "residual activity", 93),
]

For record "COc1cc2ncnc(Nc3ccc(Oc4ccccc4)cc3)c2cc1OC" the listed residual activity is 96

For record "Cc1cccc(-c2[nH]c(C(C)(C)C)nc2-c2ccc3c(c2)OCO3)n1" the listed residual activity is 94

For record "CC(=O)c1ccc(N2CCOCC2)cc1O" the listed residual activity is 97

For record "COc1ccc(S(=O)(=O)N(CCO)c2ccccc2CN(C)C/C=C/c2ccc(Cl)cc2)cc1" the listed residual activity is 93

For record "O=C1NC(=O)/C(=C\c2ccc3nccnc3c2)S1" the listed residual activity is 89

For record "c1ccc(-c2n[nH]cc2-c2ccnc3ccccc23)nc1" the listed residual activity is 72

For record "COc1cc2ncc(-c3ccccc3)nc2cc1OC" the listed residual activity is 100

For record "CCC(=O)Nc1ccc2ncnc(Nc3cccc(Br)c3)c2c1" the listed residual activity is 91

For record "COc1cc2ncnc(N3CCN(C(=O)Nc4ccc(Oc5ccccc5)cc4)CC3)c2cc1OC" the listed residual activity is 88
